These data points were gathered from patent US20160264649A1.

- experimental-system: HIV-1 Env of pseudovirus isolate MGRM-G-004 (subtype G) (HIV-1)
- procedure-text: cell-based or functional assay
Measured IC50 accompanies every entry in the list below.
reported-property: IC50

binder: PGT-130 (antibody, V domains shown) VH: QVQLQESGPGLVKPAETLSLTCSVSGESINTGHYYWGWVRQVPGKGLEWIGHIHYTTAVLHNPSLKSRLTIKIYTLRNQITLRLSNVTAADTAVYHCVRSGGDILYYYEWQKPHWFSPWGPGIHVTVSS VL: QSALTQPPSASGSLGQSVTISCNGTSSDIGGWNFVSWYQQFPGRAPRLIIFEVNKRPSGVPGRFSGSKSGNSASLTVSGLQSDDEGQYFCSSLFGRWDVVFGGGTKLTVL
observed-value: > 50 µg/mL
--
binder: PGT-127 (antibody, V domains shown) VH: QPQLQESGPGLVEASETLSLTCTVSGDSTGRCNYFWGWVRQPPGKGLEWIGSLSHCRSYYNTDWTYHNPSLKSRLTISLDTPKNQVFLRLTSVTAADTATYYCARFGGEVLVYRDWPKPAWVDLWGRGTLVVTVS VL: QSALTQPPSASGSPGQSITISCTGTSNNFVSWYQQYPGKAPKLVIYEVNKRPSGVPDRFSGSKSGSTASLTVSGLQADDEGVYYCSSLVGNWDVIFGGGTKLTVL
observed-value: > 50 µg/mL
--
binder: PGT-128 (antibody, V domains shown) VH: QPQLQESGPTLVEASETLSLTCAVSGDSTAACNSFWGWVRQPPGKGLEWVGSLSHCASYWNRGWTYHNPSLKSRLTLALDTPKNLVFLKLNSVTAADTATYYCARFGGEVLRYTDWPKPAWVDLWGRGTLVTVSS VL: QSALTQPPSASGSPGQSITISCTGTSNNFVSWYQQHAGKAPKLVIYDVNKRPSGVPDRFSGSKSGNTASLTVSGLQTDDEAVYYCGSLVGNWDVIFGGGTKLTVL
observed-value: > 50 µg/mL
